# Test system: Mus musculus
# assay-details: Tumor volume in 16 days after tumor implantation at a dose of 3.125 mg/kg/day of compound
# Type: functional
assay-metric: Tumor volume (mm**3)
Express your answer in mm**3, writing the number without its unit.

Worked cases, answers included:
molecule | Tumor volume [mm**3]
CCc1nc(N)nc(N)c1-c1ccc(NCc2ccc(C)cc2)c([N+](=O)[O-])c1 | 596
CN(Cc1cnc2nc(N)nc(N)c2n1)c1ccc(C(=O)N[C@@H](CCC(=O)O)C(=O)O)cc1 [METHOTREXATE] | 987

Identify measured Tumor volume associated with CCc1nc(N)nc(N)c1-c1ccc(NCc2ccc(Cl)c(Cl)c2)c([N+](=O)[O-])c1 498

Identify Tumor volume associated with the molecule CCc1nc(N)nc(N)c1-c1ccc(NCc2ccc(C(F)(F)F)cc2)c([N+](=O)[O-])c1 291

Report Tumor volume for CCc1nc(N)nc(N)c1-c1ccc(NCc2ccc(F)cc2)c([N+](=O)[O-])c1 337

For the molecule CCCCNc1ccc(-c2c(N)nc(N)nc2CC)cc1[N+](=O)[O-] , report Tumor volume. 622

Quote Tumor volume reported for CCc1nc(N)nc(N)c1-c1ccc(NCc2ccc(OC)cc2)c([N+](=O)[O-])c1 please. 306
